Data origin: the supplement of paper PMC11865577

# Tested on: G-clamp-N3 (biotin conjugate)
# ASSAY_METHOD_TEXT: pull-down binding Z-score (relative to library population); higher = stronger binding
# EXPERIMENTAL_CONDITIONS: RNA library: Library-1 (pre-miRNA loops + repeats)
RESULT_TYPE: pull-down binding Z-score

CONSTRUCT_SEQUENCE	TARGET_SYSTEM	RECORDED_RESULT
CUGCUGCCGAUUCUGCACCAG [hsa-mir-4756]	G-clamp-N3 (biotin conjugate)	-1.02
UGGCCUGGCAGUGCGUCGGAAGAACAGGGCGGGUGGGGCC [hsa-mir-4792]	G-clamp-N3 (biotin conjugate)	2.84
CAGCUACACAAGCUG [hsa-mir-631]	G-clamp-N3 (biotin conjugate)	1.64
UGUAUGUGUAAAUACAUAUCCACACA [hsa-mir-4789]	G-clamp-N3 (biotin conjugate)	-1.45
GGGCAGGGAGUCAGAGGGGACCGCCC [hsa-mir-4740]	G-clamp-N3 (biotin conjugate)	2.09
AUUGCUGGACGCUGCCCUGGGCAU [hsa-mir-25]	G-clamp-N3 (biotin conjugate)	-0.192
GGCAUCAGAGGACAGCCGCCUGGUGCC [hsa-mir-4641]	G-clamp-N3 (biotin conjugate)	0.915
GUGCACUUCAUUUACGAUGUAG [hsa-mir-1193]	G-clamp-N3 (biotin conjugate)	-0.679
GUGGCUAAUCAGCUGAUGGUGCCAC [hsa-mir-4715]	G-clamp-N3 (biotin conjugate)	-0.109
UUAUUCAGAGAGGCUAGAUCCUCUGUGUUGAGAAGGAUCA [hsa-mir-433]	G-clamp-N3 (biotin conjugate)	0.503
AAACGUGCUCAGUGUCUUUAUAACAGGAAAGCCGUAAAC [hsa-mir-1272]	G-clamp-N3 (biotin conjugate)	-0.626
UGGGAGGUAAGAGCUCUUCACCCUUCA [hsa-mir-197]	G-clamp-N3 (biotin conjugate)	-0.817
UUUUCCCUUUCUCUUGCCCUGAAA [hsa-mir-4509-1_4509-3_4509-2]	G-clamp-N3 (biotin conjugate)	-1
CCGCUAGUGGAAGAAGAUGGCGG [hsa-mir-6125]	G-clamp-N3 (biotin conjugate)	1.5
CCCACGUCGCAUGCGCCCCGGGAAAGCGUGGG [hsa-mir-3180-1_3180-3_3180-2]	G-clamp-N3 (biotin conjugate)	1.94
UUAACCUAAAAUGAGAAGGCUAA [hsa-mir-633]	G-clamp-N3 (biotin conjugate)	-1.29
CUGUGUGAGGACUAGAGGCGG [hsa-mir-4523]	G-clamp-N3 (biotin conjugate)	1.39
GAUUAUUGUAAGCAGGAUCCAUUCAAUAAUC [hsa-mir-5188]	G-clamp-N3 (biotin conjugate)	-0.228
AGUUCAGGAGGUGGCACUGCUGUGUGUGAGCU [hsa-mir-6876]	G-clamp-N3 (biotin conjugate)	1.55
CAAGAGGUGUGAGCCACACACACGCCUGGCCUCCUG [hsa-mir-5699]	G-clamp-N3 (biotin conjugate)	1.28
AUUAGACAGAAAAAAGUUAGACACAAAAAAUUGUGUCUAAU [hsa-mir-4759]	G-clamp-N3 (biotin conjugate)	-0.0386
CCAGGUUCCAUGUGAUGCUGAA [hsa-mir-6806]	G-clamp-N3 (biotin conjugate)	0.154
